# test_description: suppressors of polyQ aggregation in yeast, 75Q-TubU reporter (AID 1593)
# experimental_context: Yeast 75Q polyglutamine aggregation reporter
This section presents compounds with their documented score values.
In your answer, state the number alone without any accompanying words.

For orientation, consider the following solved cases.
Nc1ncnc2c1ncn2C1O[C@H](COP(=O)(O)O)[C@@H](O)[C@H]1O (stereo partly specified) ... 1.5
C[C@H]1CC2C([C@@H](O)C[C@@]3(C)C2CC[C@]3(O)C(=O)CO)[C@@]2(C)C=CC(=O)C=C12 (stereo partly specified) ... 1.06
CN1CCN(C(c2ccccc2)c2ccc(Cl)cc2)CC1 (stereo unspecified) ... 1.32
CC(C)(S)C(N)C(=O)O (stereo unspecified) ... 1.79

Qu. Report score, nothing else, for this compound: O=C(O)C1CCCNC1 (stereo unspecified)
Ans. 2.59

Qu. Return reported score. Input compound: `NC(N)=N/N=C\c1c(Cl)cccc1Cl`
Ans. 1.22

* * *

# test_description: HepG2 cytotoxicity, primary screen, cytotoxicity control for P. falciparum antimalarial project, cell-based, ATP luminescence (AID 2303);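 note: 0% = DMSO wells and 100% = digitonin-killed cells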
# experimental_context: HepG2 viability, 24-48 h, at 10 µM
Active and inactive are the calls of the source.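 Rule for the calls: active = inhibition above 50%; inactive = the rest.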
The categories you may choose from are yes (1) = active, no (0) = inactive

Consider the following illustrative entries.
CCn1c(-c2nonc2N)nc2c(-c3cccc(Cl)c3)ncc(OCCCNCc3cnc(C)nc3N)c21 ... no (0)
Cc1cccc(CCNC(=O)c2cc(Br)cc(N3CCN(c4ccncc4)CC3)c2)c1 ... no (0)
Cc1ccc(N)cc1-c1nc(NC2CC(C)(C)NC(C)(C)C2)nc2c1ccc(=O)n2-c1c(F)cccc1F ... no (0)
COc1cccc(C(=O)[C@H]2C[C@@H]2CN(C)CC(O)c2cc(C)c(OC)cc2C)c1 (stereo partly drawn) ... no (0)
O=C(NCC(c1ccc(C(F)(F)F)cc1)N1CCCC1)c1cc(-c2ccncc2)c(-c2cccc(O)c2)o1 (stereo not drawn) ... no (0)

Qu. What did this assay record as the result for `CC(=O)Nc1cccc(Nc2nccc(-c3c(-c4cccc(NC(=O)c5c(F)cccc5F)c4)nn4ncccc34)n2)c1` ?
Ans. yes (1)

Qu. Can you look up the reported call for `O=C(Nc1ccc2nc3n(c(=O)c2c1)CCCCC3)C(=O)N1CCC(Cc2ccccc2)CC1` for me?
Ans. no (0)

Qu. What was the test verdict on `Cc1ccc(CN2CCCN(Cc3cccc(NC(=O)c4ccc(-c5ccccc5)cc4)c3)CC2)cc1C` ?
Ans. no (0)

Qu. Tell me the assay call for `CN(CCc1ccccc1)c1ncc(-c2ccccc2CNCc2ccccc2O)cn1` please.
Ans. no (0)

Qu. State the result this test recorded for `CN(c1ccc(NC(=O)Nc2cc(C(C)(C)C)on2)cc1)c1ccnc(NCCN2CCOCC2)n1` .
Ans. yes (1)

Qu. Hi team, can someone confirm the assay call for CC(NC(=O)c1ccc(O)c(-c2ccc(Cl)c(Cl)c2)c1)C(=O)NCCN1CCCCC1 (stereo not drawn) ?
Ans. no (0)

Qu. Please indicate how the test categorized `CCN(CC)CCNC(=O)c1ccc(Nc2ncc([N+](=O)[O-])c(Nc3ccccc3OC)n2)cc1` .
Ans. yes (1)

Qu. Could you check what this test reported for Cc1cccc2[nH]c(-c3ccc(-c4cccc(CN5CCN(CC6CCCN(C)C6)CC5)c4)s3)nc12 (stereo not drawn) ?
Ans. no (0)

Qu. Hi, sorry to bother you, what did the test record for `CC(C)NCc1ccc(-c2cccc(-c3nc4ccc(C(F)(F)F)cc4[nH]3)c2)cc1` ?
Ans. no (0)

Qu. Tell me the assay call for `COc1ccc(-c2cnn3ccc(Nc4cc(OC)c(OC)c(OC)c4)nc23)cc1OC` please.
Ans. yes (1)

Qu. What classification did `CN1CCC(N2CCN(C(=O)c3cccc(-c4cccc(-c5nc6ccccc6[nH]5)c4)c3)CC2)CC1` end up with in this test?
Ans. no (0)

Qu. Fill in: this test's call for `c1ccc(COc2ccc(Nc3ncnc4cnc(-c5ccc(CN6CCCCC6)o5)cc34)cc2)cc1` is ___
Ans. no (0)

Qu. For `O=C(NCCN1CCCC1)N1CCCN(c2ncnc3cc(-c4ccc(F)cc4)sc23)CC1` , what call appears in the results of this test?
Ans. no (0)

Qu. Record lookup: outcome of this test for `Cc1nc(-c2nc(NCCc3cnccn3)ncc2-c2ccsc2)sc1C` ?
Ans. no (0)

Qu. Field: outcome | Entry: `CCn1c(-c2nonc2N)nc2c(-c3ccccc3)ncc(OCCCNCCCN3CCOCC3)c21`
Ans. no (0)

Qu. Each compound tested received a call. Report the one for `O=C(/C=C/c1ccc(CNCCN2CCOCC2)cc1)NCCc1ccccc1` .
Ans. no (0)

Qu. Look up the recorded call for COc1cc2c(cc1OC)C(C(=O)Nc1cc(OC)c(OC)c(OC)c1)C(c1ccc(SC)cc1)N(C)C2=O (stereo not drawn) in this test.
Ans. no (0)

Qu. Recorded call for `COc1ccc(CNC(=O)Nc2cccc(-c3csc(N=C(N)N)n3)c2)cc1` ?
Ans. no (0)

Qu. What did the test return for `Cc1cc(N[C@@H](CC(C)C)C(=O)NCCc2ccccc2)nc(Nc2ccccc2)n1` ?
Ans. no (0)

Qu. Recorded test outcome, item CN(C)c1ccc(CN2CCCC(CNC(=O)c3ccc(-c4cccc(C(F)(F)F)c4)s3)C2)cc1 (stereo not drawn)
Ans. no (0)
